TEST_METHOD_NOTES: Chemical stability assessment of peptides (relative purity loss)
Type: physicochemical
DETAILS: 50 mM HCl pH 1.2 + acetonitrile (1:1); 24 hours at 37° C.
Starred links: 1 amine or outer side, 2 acyl side, 3 side chain; linkers in the order of their positions; H or OH if unused. Positions of bridges follow the written chain, without caps; N, C: chain ends. Non-standard residues stand in square brackets, D forms with d. Residues, ends and D or L forms follow the SMILES beside them. *: point of attachment. X3 = CN(CCCCC(=O)N[C@@H](CS[*:2])C(=O)[*:1])[*:3]; Trp(7-Me) = Cc1cccc2c(C[C@H](N)C(=O)O)c[nH]c12; X1 = O=C(CCCCN[*:3])N[C@@H](CS[*:2])C(=O)[*:1]; 2Nal = N[C@@H](Cc1ccc2ccccc2c1)C(=O)O; AEF = NCCOc1ccc(C[C@H](N)C(=O)O)cc1; NMeN = CN[C@@H](CC(N)=O)C(=O)O; αMeL = CC(C)C[C@](C)(N)C(=O)O; Thp = NC1(C(=O)O)CCOCC1; Me2NCH2CH2 = CN(C)CC*; Aib = CC(C)(N)C(=O)O; Ahx = NCCCCCC(=O)O; Ava = NCCCCC(=O)O; Sar = CNCC(=O)O
Items are presented alongside their recorded Chemical stability (relative purity loss) Buffer pH 1.2.
# value in %; strip the unit string

[[record]]
compound = "CC(=O)N[C@H]1CCCCNC(=O)[C@@H]2CSSC[C@H](NC(=O)[C@H](CCC(N)=O)NC(=O)[C@H](Cc3c[nH]c4ccccc34)NC1=O)C(=O)N[C@@H](Cc1ccc(OCCN(C)C)cc1)C(=O)N[C@@H](Cc1ccc3ccccc3c1)C(=O)NC1(CCOCC1)C(=O)N[C@H](C(=O)N[C@@H](C)C(=O)N[C@H](CC(C)C)C(N)=O)CCC(=O)NCCCCC(=O)N2 [compound 33] (Ac-KWQCY(Me2NCH2CH2)[2Nal][Thp]EA[dL]-NH2; linker 1-4-8 via X1)"
measurement_unit = "%"
readout_number = 5.9

[[record]]
compound = "COc1ccc(C[C@@H]2NC(=O)[C@@H]3CSSC[C@H](NC(=O)CCCCCNC(=O)CC[C@@H](C(=O)N[C@@H](CC(N)=O)C(=O)N[C@@H](CC(N)=O)C(N)=O)NC(=O)C(C)(C)NC(=O)[C@H](Cc4ccc5ccccc5c4)NC2=O)C(=O)N[C@@H](CC(N)=O)C(=O)N[C@@H]([C@@H](C)O)C(=O)N[C@@H](Cc2c[nH]c4ccccc24)C(=O)N[C@@H](CCC(N)=O)C(=O)N3)cc1 [compound 2] ([Ahx]CNTWQCY(Me)[2Nal][Aib]ENN-NH2; disulfide 2-7; lactam N-11)"
measurement_unit = "%"
readout_number = 27.5

[[record]]
compound = "CC(=O)N[C@H]1CCCCNC(=O)[C@@H]2CSSC[C@H](NC(=O)[C@H](CCC(N)=O)NC(=O)[C@H](Cc3c[nH]c4ccccc34)NC1=O)C(=O)N[C@@H](Cc1ccc(OCCN)cc1)C(=O)N[C@@H](Cc1ccc3ccccc3c1)C(=O)NC(C)(C)C(=O)N[C@H](C(=O)N[C@@H](CC(N)=O)C(=O)N[C@@H](CC(N)=O)C(N)=O)CCC(=O)N(C)CCCCC(=O)N2 [compound 12] (Ac-KWQC[AEF][2Nal][Aib]ENN-NH2; linker 1-4-8 via X3)"
measurement_unit = "%"
readout_number = 24.5

[[record]]
compound = "COc1ccc(C[C@@H]2NC(=O)[C@@H]3CSSC[C@H](NC(=O)CCCCCNC(=O)C[C@@H](C(=O)N[C@@H](CC(N)=O)C(=O)N[C@@H](CC(N)=O)C(N)=O)NC(=O)C(C)(C)NC(=O)[C@H](Cc4ccc5ccccc5c4)NC2=O)C(=O)N(C)[C@@H](CC(N)=O)C(=O)N[C@@H]([C@@H](C)O)C(=O)N[C@@H](Cc2c[nH]c4ccccc24)C(=O)N[C@@H](CCC(N)=O)C(=O)N3)cc1 [compound 6] ([Ahx]C[NMeN]TWQCY(Me)[2Nal][Aib]DNN-NH2; disulfide 2-7; lactam N-11)"
measurement_unit = "%"
readout_number = 27.4

[[record]]
compound = "CC(=O)NCCCC[C@@H]1NC(=O)[C@H](Cc2c[nH]c3c(C)cccc23)NC(=O)[C@H]([C@@H](C)O)NC(=O)[C@H](CC(N)=O)NC(=O)[C@@H]2CSSC[C@H](NC1=O)C(=O)N[C@@H](Cc1ccc(OCCN(C)C)cc1)C(=O)N[C@@H](Cc1ccc3ccccc3c1)C(=O)NC(C)(C)C(=O)N[C@H](C(=O)N[C@@H](CC(N)=O)C(=O)N[C@@H](Cc1c[nH]cn1)C(=O)N(C)CC(N)=O)CCC(=O)NCCCCC(=O)N2 [compound 45] ([Ava]CNT[Trp(7-Me)]K(Ac)CY(Me2NCH2CH2)[2Nal][Aib]ENH[Sar]-NH2; disulfide 2-7; lactam N-11)"
measurement_unit = "%"
readout_number = 15.7

[[record]]
compound = "C[C@@H](O)[C@@H]1NC(=O)[C@H](CC(N)=O)NC(=O)[C@@H]2CSSC[C@H](NC(=O)[C@H](CCC(N)=O)NC(=O)[C@H](Cc3c[nH]c4ccccc34)NC1=O)C(=O)N[C@@H](Cc1ccc(OCCN)cc1)C(=O)N[C@@H](Cc1ccc3ccccc3c1)C(=O)NC(C)(C)C(=O)N[C@H](C(=O)N[C@@H](CC(N)=O)C(=O)NCC(N)=O)CC(=O)NCCCCCC(=O)N2 [compound 9] ([Ahx]CNTWQC[AEF][2Nal][Aib]DNG-NH2; disulfide 2-7; lactam N-11)"
measurement_unit = "%"
readout_number = 13.8


Request: Output measured Chemical stability (relative purity loss) Buffer pH 1.2 for this item: CC(=O)N[C@H]1CCCCNC(=O)[C@@H]2CSSC[C@H](NC(=O)[C@H](CCC(N)=O)NC(=O)[C@H](Cc3c[nH]c4ccccc34)NC1=O)C(=O)N[C@@H](Cc1ccc(OCCN)cc1)C(=O)N[C@@H](Cc1ccc3ccccc3c1)C(=O)N[C@@](C)(CC(C)C)C(=O)N[C@H](C(=O)N[C@@H](C)C(=O)NCC(N)=O)CCC(=O)N(C)CCCCC(=O)N2 [compound 18] (Ac-KWQC[AEF][2Nal][αMeL]EAG-NH2; linker 1-4-8 via X3)
Result: 11.4

Request: Read off the recorded Chemical stability (relative purity loss) Buffer pH 1.2 for CC(=O)N[C@H]1CCCCNC(=O)[C@@H]2CSSC[C@H](NC(=O)[C@H](CCC(N)=O)NC(=O)[C@H](Cc3c[nH]c4ccccc34)NC1=O)C(=O)N[C@@H](Cc1ccc(OCCN)cc1)C(=O)N[C@@H](Cc1ccc3ccccc3c1)C(=O)N[C@@](C)(CC(C)C)C(=O)N[C@H](C(=O)N[C@@H](C)C(=O)N[C@H](CC(C)C)C(N)=O)CCC(=O)N(C)CCCCC(=O)N2 [compound 44] (Ac-KWQC[AEF][2Nal][αMeL]EA[dL]-NH2; linker 1-4-8 via X3)
Result: 4.1

Request: // Input: CC(C)C[C@]1(C)NC(=O)[C@H](Cc2ccc3ccccc3c2)NC(=O)[C@H](Cc2ccc(OCCN(C)C)cc2)NC(=O)[C@@H]2CSSC[C@H](NC(=O)CCCCNC(=O)CC[C@@H](C(=O)N[C@@H](CC(N)=O)C(=O)N[C@@H](CC(N)=O)C(N)=O)NC1=O)C(=O)N[C@@H](CC(N)=O)C(=O)N[C@@H]([C@@H](C)O)C(=O)N[C@@H](Cc1c[nH]c3ccccc13)C(=O)N[C@@H](CCC(N)=O)C(=O)N2 [compound 27] ([Ava]CNTWQCY(Me2NCH2CH2)[2Nal][αMeL]ENN-NH2; disulfide 2-7; lactam N-11) . Output its Chemical stability (relative purity loss) Buffer pH 1.2 only.
Result: 23.8
